Sourced from patent US20220177587A1

I'd appreciate it if you could supply Fold change to WT CD80 values for the items below.
- target_desc: human CTLA-4 (huCTLA4), on stably transduced CHO cells (human) (UniProt P16410)
- Sequence (P16410 36-223): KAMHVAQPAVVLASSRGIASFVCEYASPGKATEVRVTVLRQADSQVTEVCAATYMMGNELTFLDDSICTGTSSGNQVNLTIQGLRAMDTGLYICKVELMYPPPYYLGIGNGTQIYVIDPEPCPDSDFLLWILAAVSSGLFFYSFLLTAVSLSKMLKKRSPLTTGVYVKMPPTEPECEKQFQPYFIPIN
- method_description: flow cytometry on CHO/huCTLA4 cells; MFI relative to WT CD80 (CD80 WT IgV-Fc = 1.0)
Number only, in fold; omit the unit.

Query: Value lookup for Fold change to WT CD80; key = variant CD80 IgV-Fc D46V/M47I/A71G (Fc fusion) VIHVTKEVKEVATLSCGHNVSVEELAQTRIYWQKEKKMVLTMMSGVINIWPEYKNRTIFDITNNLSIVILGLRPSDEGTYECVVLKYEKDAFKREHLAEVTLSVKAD
Response: 14.8

Query: How about this binder: variant CD80 IgV-Fc E35D/D46E/L85M (Fc fusion) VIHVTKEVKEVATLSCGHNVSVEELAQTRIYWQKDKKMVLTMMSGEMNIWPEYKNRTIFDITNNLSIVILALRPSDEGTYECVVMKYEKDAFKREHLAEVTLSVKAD
Response: 15.8

Query: Then this binder: variant CD80 IgV-Fc E35D/D46E/M47I (Fc fusion) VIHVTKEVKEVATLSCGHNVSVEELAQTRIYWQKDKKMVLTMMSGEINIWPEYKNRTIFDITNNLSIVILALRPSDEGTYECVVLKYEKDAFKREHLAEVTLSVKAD
Response: 11.2

Query: Same again, this time with variant CD80 IgV-Fc E35D/M47L/A71G/L85M (Fc fusion) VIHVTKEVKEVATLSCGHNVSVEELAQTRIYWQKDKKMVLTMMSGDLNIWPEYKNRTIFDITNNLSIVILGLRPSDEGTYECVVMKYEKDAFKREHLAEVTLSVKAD
Response: 8.7

Query: Likewise for variant CD80 IgV-Fc Q27L/E35D/M47V/I61V/L85M (Fc fusion) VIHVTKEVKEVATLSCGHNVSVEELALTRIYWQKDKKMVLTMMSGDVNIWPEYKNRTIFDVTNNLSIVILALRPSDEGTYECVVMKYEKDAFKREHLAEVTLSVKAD ?
Response: 14.6

Query: What do you get for variant CD80 IgV-Fc M47I/A71G (Fc fusion) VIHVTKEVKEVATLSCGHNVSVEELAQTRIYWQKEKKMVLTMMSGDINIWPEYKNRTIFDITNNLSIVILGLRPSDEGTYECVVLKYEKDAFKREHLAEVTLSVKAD ?
Response: 14.5

Query: Then this binder: variant CD80 IgV-Fc Q27H/E35D/M47I (Fc fusion) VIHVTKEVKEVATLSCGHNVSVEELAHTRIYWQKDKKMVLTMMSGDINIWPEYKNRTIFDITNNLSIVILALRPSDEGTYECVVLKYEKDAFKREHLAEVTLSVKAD
Response: 14.4

Query: Likewise for variant CD80 IgV-Fc H18Y/E35D/M47L/A71G/A91S (Fc fusion) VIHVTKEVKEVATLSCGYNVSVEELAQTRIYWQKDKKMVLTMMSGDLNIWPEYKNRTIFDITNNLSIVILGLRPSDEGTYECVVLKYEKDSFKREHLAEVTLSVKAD ?
Response: 12.6

Query: Check variant CD80 IgV-Fc E35D/D46E (Fc fusion) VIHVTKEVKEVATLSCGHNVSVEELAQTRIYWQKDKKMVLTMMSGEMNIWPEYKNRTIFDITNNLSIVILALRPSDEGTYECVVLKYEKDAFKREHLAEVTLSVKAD too.
Response: 14.6

Query: Query variant CD80 IgV-Fc E35D/M47V (Fc fusion) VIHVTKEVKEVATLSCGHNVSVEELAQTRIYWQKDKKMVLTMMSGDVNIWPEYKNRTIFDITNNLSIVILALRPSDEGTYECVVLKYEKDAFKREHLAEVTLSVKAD next
Response: 10.9
